# Test: chemical genetic growth profiling, strain panel (AID 1159580);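 note: tested at 20 µM; growth read once vehicle control cultures reached saturation at 30 °C; 1 = growth at the plate median or of vehicle wells; lower values mean less growth of the strain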
# Condition parameters: S. cerevisiae deletion strains, growth OD, locus YOR265W, strain rbl2
Among all 5,500 compounds or so, about 2,000 (36%) were called active. About 18% were inconclusive and are not listed. Cut-off read from the data, not from the text of the source: active = normalized growth mostly below about 0.91 (no sharp cut-off); inconclusive = no clear call, values can overlap the other calls; inactive = mostly above about 0.92. Some of the results follow.
Assign a class; possible classes are active, inactive

Example entries and their recorded answers appear below.
Molecule: O=C(OC1Cc2c(O)cc(O)cc2OC1c1cc(O)c(O)c(O)c1-c1c(C2Oc3cc(O)cc(O)c3CC2OC(=O)c2cc(O)c(O)c(O)c2)cc(O)c(O)c1O)c1cc(O)c(O)c(O)c1 (stereo not drawn)
Label value: inactive

Molecule: OC[C@@H](O)[C@@H](O[C@@H]1O[C@H](CO)[C@@H](O)[C@H](O)[C@H]1O)[C@H](O)[C@@H](O)CO
Label value: inactive

Molecule: COC(C)(C)CCC[C@H](C)C/C=C/C(C)=C/C(=O)OC(C)C
Label value: inactive

Molecule: NCCCC[C@H](N[C@@H](CCc1ccccc1)C(=O)O)C(=O)N1CCC[C@H]1C(=O)O
Label value: inactive

Molecule: Oc1c(Cl)cc(Cl)c2cccnc12
Label value: active

Please turn your attention to the following entry.
input: State the result this test recorded for Oc1c(I)cc(Cl)c2cccnc12 .
output: active

---

# Test: chemical genetic growth profiling, strain panel (AID 1159580);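 note: tested at 20 µM; growth read once vehicle control cultures reached saturation at 30 °C; 1 = growth at the plate median or of vehicle wells; lower values mean less growth of the strain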
# Condition parameters: S. cerevisiae deletion strains, growth OD, locus YAR019C, strain CDC15, hits give low values
Out of some 5,500 compounds screened, about 2,000 (36%) were called active. Not shown: some 18% with an inconclusive outcome. This is one part of the list.
Provide the recorded normalized growth for the entries that follow.
One number for each entry.

Compound: O=C(NCCSCc1cccc(C(F)(F)F)c1)c1ccc(Cl)cc1
normalized growth: 0.968
--
Compound: CC(C)c1ccc(N2C=Nc3ccc(C(C)C)cc3C2)cc1
normalized growth: 0.998
--
Compound: O=C(NCCSCc1ccco1)Nc1cc(Cl)cc(Cl)c1
normalized growth: 0.958
--
Compound: N#CC(C#N)=C/C=C(/Sc1ccc(F)c(Cl)c1)c1ccc(Cl)cc1
normalized growth: 0.937

I have 7 compounds here; please give me normalized growth for each one.
1. CC(C)c1ccc(NC(=S)NC(=O)c2ccccc2)cc1
2. Fc1cccc(F)c1NC(=S)Nc1cc(C(F)(F)F)cc(C(F)(F)F)c1
3. O=C1CSC(c2cccnc2)N1c1ccc(Cl)cc1Cl (stereo unspecified)
4. NC(=Nc1ccc(F)cc1)SCc1c(Cl)cccc1Cl
5. Cc1c(C)c(C)c(CSC(N)=Nc2ccc(F)cc2)c(C)c1C
6. CC(=O)c1sc(SCCS(=O)(=O)c2ccc(C)cc2)c2c1CC(C)(C)CC2=O
7. O=C(c1ccc2ccccc2c1)N1CCN(c2ccnc3cc(Cl)ccc23)CC1

output:
1: 0.964; 2: 0.979; 3: 0.986; 4: 0.992; 5: 0.996; 6: 0.984; 7: 1

---

# Test: chemical genetic growth profiling, strain panel (AID 1159580);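 note: tested at 20 µM; growth read once vehicle control cultures reached saturation at 30 °C; 1 = growth at the plate median or of vehicle wells; lower values mean less growth of the strain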
# Condition parameters: S. cerevisiae deletion strains, growth OD, locus YCL029C, strain bik1, hits give low values
Among all 5,500 compounds or so, about 2,000 (36%) were called active. Another 18% or so got no clear call; they are omitted. The list shows a part of the results.
Test readout: normalized growth
Answers are plain numbers.

Known normalized growth results, listed for orientation:
Compound: Oc1c(Br)cc(Br)c2cccnc12
Recorded number: 0.07
//
Compound: CC1(C)CC2C1(O)CCC1(C)C=CC(O)C21CO (configuration not stated)
Recorded number: 0.975
//
Compound: CCC(Cc1c(I)cc(I)c(N)c1I)C(=O)O (configuration not stated)
Recorded number: 0.997
//
Compound: CCCCC1(COC(=O)CCC(=O)O)C(=O)N(c2ccccc2)N(c2ccccc2)C1=O
Recorded number: 1.02
//
Compound: O=C(O)c1cccnc1Nc1cccc(C(F)(F)F)c1
Recorded number: 0.944
//
Compound: c1ccc2c(c1)cc1ccc3cccc4ccc2c1c34
Recorded number: 0.995
//
Compound: O=C(OC1Cc2c(O)cc(O)cc2OC1c1cc(O)c(O)c(O)c1-c1c(C2Oc3cc(O)cc(O)c3CC2OC(=O)c2cc(O)c(O)c(O)c2)cc(O)c(O)c1O)c1cc(O)c(O)c(O)c1 (configuration not stated)
Recorded number: 0.981
//
Compound: COC(=O)Oc1ccccc1C(=O)O
Recorded number: 1.01

Batch lookup, normalized growth per entry.
1. Cc1ccc2cc3c(ccc4ccccc43)c3c2c1CC3
2. CNc1ccccc1C(=O)O
3. N[C@@H](Cc1ccc(O)c(O)c1)C(=O)O

output:
[0.954, 1.01, 0.998]

input: Return normalized growth (reported value) for this compound: Oc1ccc(Cl)c2cccnc12
output: 0.0654
